meta.source: PubChem BioAssay AID1745844

- Tested on: rodent lifetime carcinogenesis bioassay, tumor incidence TD50
- experimental-protocol: carcinogenic potency in animals, long-term in vivo studies, CPDB compilation (AID 1745844)
- condition-parameters: rat; strain Charles River CD (Sprague-Dawley); males; in feed; site: liver; lesion: several types; types named in the paper; dosed 47 weeks; study length 51 weeks
outcome-measure: TD50 (mg/kg/day)
All answers are understood in mg/kg/day, so give the number only.

Request the reported TD50 associated with COc1ccc(OC)c(/C=C/c2ccc(N)cc2)c1
2.61

====

- Test system: rodent lifetime carcinogenesis bioassay, tumor incidence TD50
- experimental-protocol: carcinogenic potency in animals, long-term in vivo studies, CPDB compilation (AID 1745844)
- condition-parameters: mouse; strain B6C3F1; females; by gavage; site: forestomach + Harderian gland + liver + palate + pharynx + uterus; lesion: squamous-cell carcinoma + squamous-cell papilloma + adenoma + adenoma, bilateral + hepatocellular adenoma + hepatocellular carcino; dosed 88 weeks; study length 104 weeks
outcome-measure: TD50 (mg/kg/day)
The response must be a number in mg/kg/day with no trailing unit.

Can you share its TD50? I mean this compound: ClCC(Cl)CCl
0.826

====

- System: rodent lifetime carcinogenesis bioassay, tumor incidence TD50
- experimental-protocol: carcinogenic potency in animals, long-term in vivo studies, CPDB compilation (AID 1745844)
- condition-parameters: mouse; strain Swiss albino; females; in drinking water; site: liver; lesion: several types; types named in the paper; dosed 75 weeks; study length 79 weeks
outcome-measure: TD50

Param item = CCCN(N)C=O ; retrieve measured TD50.
215 mg/kg/day

====

- Tested on: rodent lifetime carcinogenesis bioassay, tumor incidence TD50
- experimental-protocol: carcinogenic potency in animals, long-term in vivo studies, CPDB compilation (AID 1745844)
- condition-parameters: rat; strain Fischer 344; females; inhaled; site: all sites; lesion: hemangiosarcoma; dosed 52 weeks; study length 104 weeks
outcome-measure: TD50

Endpoint output: TD50 of C=CCl . Value?
29.5 mg/kg/day

====

- Test system: rodent lifetime carcinogenesis bioassay, tumor incidence TD50
- experimental-protocol: carcinogenic potency in animals, long-term in vivo studies, CPDB compilation (AID 1745844)
- condition-parameters: rat; strain Fischer 344; males; in feed; site: all sites + multiple organs; lesion: lymphocytic leukemia + malignant lymphoma + undifferentiated leukemia; dosed 110 weeks; study length 111 weeks
outcome-measure: TD50

Item: Nc1ncc([N+](=O)[O-])s1 Test system: rodent lifetime carcinogenesis bioassay, tumor incidence TD50 Read-out: TD50 Value: ?
445 mg/kg/day

====

- System: rodent lifetime carcinogenesis bioassay, tumor incidence TD50
- experimental-protocol: carcinogenic potency in animals, long-term in vivo studies, CPDB compilation (AID 1745844)
- condition-parameters: mouse; strain Swiss albino; females; in drinking water; site: liver; lesion: several types; types named in the paper; dosed 111 weeks; study length 111 weeks
outcome-measure: TD50

Give its TD50 value. Item: CC(=O)NNc1ccccc1
44.8 mg/kg/day

====

- System: rodent lifetime carcinogenesis bioassay, tumor incidence TD50
- experimental-protocol: carcinogenic potency in animals, long-term in vivo studies, CPDB compilation (AID 1745844)
- condition-parameters: rat; strain Fischer 344; males; by gavage; site: kidney; lesion: tubule adenoma + tubule carcinoma + tubule epithelium adenoma + tubular-cell carcinoma, bilateral; dosed 103 weeks; study length 104 weeks
outcome-measure: TD50

What value of TD50 has been recorded for this entry: C[C@@H]1Cc2c(Cl)cc(C(=O)N[C@@H](Cc3ccccc3)C(=O)O)c(O)c2C(=O)O1
0.0579 mg/kg/day
